# credit: patent US20030148958A1

- TARGET ENTITY: CRF1R
- TEST METHOD NOTES: cell-based or functional assay
Ends that are not written are not given here.
Parameter: CRF1R EC50. Scope: all listed entries.
PARAMETER MEASURED: CRF1R EC50

1. ZGPPISIDLPFQLLRKVIEIEKQEKEKQQAANNALLLDTI (C-terminal amide) [SEQ ID NO 350] :: 1000 nM
2. ZGPPISIDLPYWLLRKMIEIEKQEKEKQQAANNRLLLDTI (C-terminal amide) [SEQ ID NO 215] :: 188 nM
3. ZGPPISIDLPFFLLRKMIEIEKQEKEKQQAANNALLLATI (C-terminal amide) [SEQ ID NO 319] :: 106 nM
4. ZGPPISIDVPFQLLRKMIEIEKQEKEKQQAANNRLLLDTI (C-terminal amide) [SEQ ID NO 256] :: 254 nM
5. ZGPPISIDLPFQLLRKAIEIEKQEKEKQQATTNARLLDRV (C-terminal amide) [SEQ ID NO 363] :: 1000 nM
6. DNPSLSIDLPQYLLRTLLELARTQSQRERAEQNAIIFASV-NH2 [SEQ ID NO 339] :: 1000 nM
